These data points were gathered from BindingDB's records for doi:10.1021/bi200655g.

- System name: Peptide deformylase (Streptococcus pneumoniae (strain ATCC BAA-255 / R6), UniProt Q8DP79)
- Sequence (Q8DP79 whole entry): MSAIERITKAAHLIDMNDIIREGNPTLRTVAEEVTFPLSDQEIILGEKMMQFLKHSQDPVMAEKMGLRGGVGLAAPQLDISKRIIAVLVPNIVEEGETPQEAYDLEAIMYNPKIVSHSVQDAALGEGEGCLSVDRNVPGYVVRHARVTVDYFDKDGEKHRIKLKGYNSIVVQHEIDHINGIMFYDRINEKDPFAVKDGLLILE
- Test protocol: Binding Assay
Readout name: pKi
// pKi: -log10(molar conc.)

The cases that follow already have their pKi on record.
molecule="O=CC(O)CCNC(=O)c1cccc(Cl)c1Cl (stereo unspecified)" system_name="Peptide deformylase (Streptococcus pneumoniae (strain ATCC BAA-255 / R6), UniProt Q8DP79)" readout_name=pKi endpoint_result=4.59
molecule=CNC(=O)c1cccc(C)c1Nc1nc(N2CCN(c3ccccc3Cl)CC2)nc(N2CSC[C@H]2C(=O)NCC(=O)NO)n1 system_name="Peptide deformylase (Streptococcus pneumoniae (strain ATCC BAA-255 / R6), UniProt Q8DP79)" readout_name=pKi endpoint_result=6.48
molecule=CCCCC[C@H](CN(O)C=O)C(=O)NNc1nccc(C(F)(F)F)n1 system_name="Peptide deformylase (Streptococcus pneumoniae (strain ATCC BAA-255 / R6), UniProt Q8DP79)" readout_name=pKi endpoint_result=5.20
molecule=Cc1ccccc1Nc1nc(N2CCN(c3ccccc3Cl)CC2)nc(N2CSC[C@H]2COCC(=O)NO)n1 system_name="Peptide deformylase (Streptococcus pneumoniae (strain ATCC BAA-255 / R6), UniProt Q8DP79)" readout_name=pKi endpoint_result=7.27
molecule=Cc1ccccc1Nc1nc(N2CCN(c3ccccc3Cl)CC2)nc(N2CSC[C@H]2C(=O)NCC(=O)NO)n1 system_name="Peptide deformylase (Streptococcus pneumoniae (strain ATCC BAA-255 / R6), UniProt Q8DP79)" readout_name=pKi endpoint_result=6.19

What the record says about CNC(=O)c1cccc(C)c1Nc1nc(N2CCN(c3ccccc3Cl)CC2)nc(N2CSC[C@H]2COCC(=O)NO)n1 : pKi is 6.67
